- Tested system: Human immunodeficiency virus type 1 reverse transcriptase (Human immunodeficiency virus 1, UniProt Q72547, P236L)
Measured metric: IC50 (nM)
Numbers only, in nM.

Here's what some known entries look like.
>>> observed_result("CN(c1ncccc1NC1(C)CC1)C1CCN(C(=O)c2cc3cc(NS(C)(=O)=O)ccc3[nH]2)CC1")
1450
>>> observed_result("CCN(c1ncccc1NC(C)(C)C)C1CCN(C(=O)c2cc3cc(NS(=O)(=O)N4CCN(C)CC4)ccc3[nH]2)CC1")
1250
>>> observed_result("CCCN(c1ncccc1NC(C)C)C1CCN(C(=O)c2cc3cc(NC(=O)N4CCN(C)CC4)ccc3[nH]2)CC1")
400
>>> observed_result("CC(C)Nc1cccnc1N(C)C1CCN(C(=O)c2cc3ccc(CO)cc3[nH]2)CC1")
370
>>> observed_result("CCCN(c1ncccc1NCC)C1CCN(C(=O)c2cc3cc(NS(C)(=O)=O)ccc3[nH]2)CC1")
520

Give me IC50 for each of these molecules, listed below.
1. CCN(c1nc(F)ccc1NC(C)(C)C)C1CCN(C(=O)c2cc3cc(NS(C)(=O)=O)ccc3[nH]2)CC1
2. CCN(c1ncccc1NC(C)C)C1CCN(C(=O)c2cc3cc(NS(=O)(=O)N4CCN(C)CC4)ccc3[nH]2)CC1
3. CCNc1cccnc1N(CC)C1CCN(C(=O)c2cc3cc(NS(=O)(=O)CC)ccc3[nH]2)CC1

1: 1050; 2: 570; 3: 260

###

- Assay summary: Bioavailability at an iv dose of 15 mg/Kg and po dose of 60 mg/Kg
- Assay type: ADME, organism-based
- Assay setup: in vivo, read-out: Bioavailabiility
Measured metric: bioavailability (%)
One number for each entry, in %.

Which bioavailability is listed for CCN(c1ncccc1NC(C)(C)C)C1CCN(C(=O)c2cc3cc(NS(C)(=O)=O)ccc3[nH]2)CC1 ?
42

###

- Tested system: Human immunodeficiency virus type 1 reverse transcriptase (Human immunodeficiency virus 1, UniProt Q72547, Y181C)
- Assay summary: Compound was tested for inhibition of HIV-1 Y181C cell line using poly(rA)300:oligo(dT)10 as substrate
Measured metric: Ki (µM)
Give bare numbers, in µM.

Which Ki is listed for CCN(c1nc(F)ccc1NC(C)(C)C)C1CCN(C(=O)c2cc3cc(NC(=O)N4CCN(C)CC4)ccc3[nH]2)CC1 ?
3.03

###

- Assay summary: Clearance at an iv dose of 15 mg/Kg and po dose of 60 mg/Kg
- Format: ADME, organism-based
- Assay setup: in vivo
Measured metric: clearance (mL/min/kg)
Numbers only, in mL/min/kg.

Which clearance is listed for CCN(c1ncccc1NC(C)(C)C)C1CCN(C(=O)c2cc3cc(NS(C)(=O)=O)ccc3[nH]2)CC1 ?
50

###

- Assay summary: Bioavailability at an iv dose of 15 mg/Kg and po dose of 120 mg/Kg
- Type: ADME, organism-based
- Assay setup: in vivo, read-out: Bioavailabiility
Measured metric: bioavailability

Which bioavailability is listed for CCN(c1ncccc1NC(C)(C)C)C1CCN(C(=O)c2cc3cc(NS(C)(=O)=O)ccc3[nH]2)CC1 ?
124%

###

- Tested system: Human immunodeficiency virus type 1 reverse transcriptase (Human immunodeficiency virus 1, UniProt Q72547, P236L)
- Assay summary: Compound was tested for inhibition of HIV-1 P236L reverse transcriptase using poly(rA)300:oligo(dT)10 as substrate
Measured metric: pKi
Numbers only, as −log10 of the molar value.

Give me pKi for each of these compounds, listed below.
1. CCN(c1ncccc1NC(C)(C)C)C1CCN(C(=O)c2cc3cc(NS(C)(=O)=O)ccc3[nH]2)CC1
2. CCN(c1nc(F)ccc1NC(C)(C)C)C1CCN(C(=O)c2cc3cc(NC(=O)N4CCN(C)CC4)ccc3[nH]2)CC1

1. 5.80
2. 5.76

###

- Assay summary: Clearance at an iv dose of 15 mg/Kg and po dose of 240 mg/Kg
- Format: ADME, organism-based
- Assay setup: in vivo
Measured metric: clearance

Which clearance is listed for CCN(c1ncccc1NC(C)(C)C)C1CCN(C(=O)c2cc3cc(NS(C)(=O)=O)ccc3[nH]2)CC1 ?
50 mL/min/kg

###

- Assay summary: Clearance at an iv dose of 15 mg/Kg and po dose of 120 mg/Kg
- Type: ADME, organism-based
- Assay setup: in vivo
Measured metric: clearance (mL/min/kg)
One number for each entry, in mL/min/kg.

Which clearance is listed for CCN(c1ncccc1NC(C)(C)C)C1CCN(C(=O)c2cc3cc(NS(C)(=O)=O)ccc3[nH]2)CC1 ?
50

###

Exercise: state measured clearance for each of the compounds provided.
- Assay summary: Clearance at an iv dose of 15 mg/Kg and po dose of 30 mg/Kg
- Assay type: ADME, organism-based
- Assay setup: in vivo
Numbers only, in mL/min/kg.

>>> observed_result("CCN(c1nc(F)ccc1NC(C)(C)C)C1CCN(C(=O)c2cc3cc(NC(=O)N4CCN(C)CC4)ccc3[nH]2)CC1")
16

Next, consider the following compound.
Which clearance is listed for CCN(c1ncccc1NC(C)(C)C)C1CCN(C(=O)c2cc3cc(NS(C)(=O)=O)ccc3[nH]2)CC1 ?
50

###

Exercise: state measured IC50 for each of the compounds provided.
- Tested on: Human immunodeficiency virus 1
- Assay summary: In vitro inhibition of recombinant HIV-1 IIIB mutant WT
- Format: functional, organism-based

>>> observed_result("CCN(c1ncccc1NC(C)(C)C)C1CCN(C(=O)c2cc3cc(NS(C)(=O)=O)ccc3[nH]2)CC1")
"320 nM"

Next, consider the following compound.
Which IC50 is listed for CCN(c1nc(F)ccc1NC(C)(C)C)C1CCN(C(=O)c2cc3cc(NC(=O)N4CCN(C)CC4)ccc3[nH]2)CC1 ?
210 nM

###

- Assay summary: Clearance at an iv dose of 15 mg/Kg and po dose of 30.2 mg/Kg
- Assay type: ADME, organism-based
- Assay setup: rat, in vivo
Measured metric: clearance (mL/min/kg)
Give bare numbers, in mL/min/kg.

Which clearance is listed for CC(C)Nc1cccnc1N(C)C1CCN(C(=O)c2cc3cc(NS(C)(=O)=O)ccc3[nH]2)CC1 ?
44

###

Exercise: state measured Ki for each of the compounds provided.
- Tested system: Human immunodeficiency virus type 1 reverse transcriptase (Human immunodeficiency virus 1, UniProt Q72547, P236L)
- Assay summary: Compound was tested for inhibition of HIV-1 P236L reverse transcriptase using dTTP as substrate
Give bare numbers, in nM.

>>> observed_result("CCN(c1ncccc1NC(C)(C)C)C1CCN(C(=O)c2cc3cc(NS(C)(=O)=O)ccc3[nH]2)CC1")
1110

Which Ki is listed for CCN(c1nc(F)ccc1NC(C)(C)C)C1CCN(C(=O)c2cc3cc(NC(=O)N4CCN(C)CC4)ccc3[nH]2)CC1 ?
2020

###

- Tested system: Human immunodeficiency virus type 1 reverse transcriptase (Human immunodeficiency virus 1, UniProt Q72547, P236L)
Exercise: state measured IC50 for each of the compounds provided.
Kindly report the value followed by its unit.

Here's what some known entries look like.
>>> observed_result("CN(c1nc(F)ccc1NC(C)(C)C)C1CCN(C(=O)c2cc3cc(NS(C)(=O)=O)ccc3[nH]2)CC1")
"1900 nM"
>>> observed_result("CCc1cc(NCc2nc3c(Cl)ccc(Cl)c3o2)c(O)nc1C")
"110 nM"
>>> observed_result("CCC(C)(C)Nc1cccnc1N(C)C1CCN(C(=O)c2cc3cc(NS(C)(=O)=O)ccc3[nH]2)CC1")
"3330 nM"
>>> observed_result("CN(c1ncccc1NCC1CC1)C1CCN(C(=O)c2cc3cc(NS(C)(=O)=O)ccc3[nH]2)CC1")
"14600 nM"
>>> observed_result("CCNc1cccnc1N(CC)C1CCN(C(=O)c2cc3cc(NC(=O)N4CCN(C)CC4)ccc3[nH]2)CC1")
"240 nM"

Give me IC50 for each of these compounds, listed below.
1. CC(C)Nc1cccnc1N(C1CC1)C1CCN(C(=O)c2cc3ccccc3[nH]2)CC1
2. CCNc1cccnc1N(CC)C1CCN(C(=O)c2cc3cc(NS(=O)(=O)C(C)C)ccc3[nH]2)CC1
3. CN(c1ncccc1NC1CC1)C1CCN(C(=O)c2cc3cc(NS(C)(=O)=O)ccc3[nH]2)CC1
4. CCCNc1cccnc1N(CC)C1CCN(C(=O)c2cc3cc(NS(C)(=O)=O)ccc3[nH]2)CC1

590 nM
330 nM
210 nM
280 nM

###

- Assay summary: Bioavailability at an iv dose of 15.7 mg/Kg and po dose of 31.4 mg/Kg
- Type: ADME, organism-based
- Assay setup: rat, in vivo, read-out: Bioavailabiility
Measured metric: bioavailability (%)
One number for each entry, in %.

Which bioavailability is listed for CC(C)Nc1cccnc1N(C1CC1)C1CCN(C(=O)c2cc3cc(NS(C)(=O)=O)ccc3[nH]2)CC1 ?
1.6
